# Tested on: PfAP2-LT AP2 domain (GST-tagged)
# PROTOCOL: gcPBM binding intensity (ln(normalized median fluorescence intensity)); higher = stronger DNA binding
Whole data set: some 25,000 sequences, median “ln(normalized median fluorescence intensity)” near 8.9, cut for the highest 2% near 10. For the sample, the highest values were picked, then their nearest neighbours and some sequences at random.
EXPERIMENTAL_READOUT: gcPBM binding intensity (ln)

1) AGTATACATATATATACACACACACCGATATATATA [CACACA_site8357] | 9.74
2) TTTTGCAAATATTACTGTACACAATCTCATATAATT [XGTACX_site2584] | 8.81
3) TAGATACATACACGCACACACATATATATATATATA [CACACA_site12] | 10.1
4) CATATATAGATATATACACACATACATACATACATA [CACACA_site7748] | 9.3
5) TATATTATAAATTAATGTACGTAATTTTTTTTTTTT [XGTACX_site2500] | 8.38
6) TAATTAACCTATGCATTCATATAGATACATAAATAT [CACACA_negctrl_site885] | 8.72
7) CATACACATACACATACACACGCATAGAAACATACG [CACACA_site8666] | 9.55
8) ATATATGGGGCGCAGGAAAAGAGTTTTGGAAATAAA [CACACA_negctrl_site1265] | 8.98
9) AATCTGATTTGTATATGTACACAAATATTTTTATTT [XGTACX_site5295] | 8.99
10) AGTATATAAAATACTGTATCGATGGGGGAGGGCGCA [CACACA_negctrl_site1612] | 10
11) ACAGAAAAAAAACACACACACATAATATACATACAT [CACACA_site1932] | 9.82
12) TAGATACATACACGCACACACATATATAAATAAATA [CACACA_site6157] | 9.68
13) CACACCCACAGACACACACACACATATATAATATAT [CACACA_site594] | 10.2
14) ATAAAATCTTAATCAACAAACAAACAAAAAAAAAAT [CACACA_negctrl_site1161] | 8.77
15) ACCTACATAACATACACACGCATATATATAATTTTA [CACACA_site2847] | 9.22
16) ATTATTTTATTATAGTGTACTTTTTTAATCAAAGGA [XGTACX_site8921] | 8.44
17) ATAGTATACGGACACACACACACACCGATATATATA [CACACA_site5032] | 10.3
18) TATTTTTTAAAAATGGGTACACATAAATAAATAAAT [XGTACX_site7643] | 8.58
19) TTGAAAATACAAAATTGTACAAAGATTTAAATAAAA [XGTACX_site1182] | 8.7
20) CATACACAGAAACACACACACATATATACATATATA [CACACA_site1094] | 9.98
21) ATCGTAGTATAATATGAACACACACCCACCCACAAA [CACACA_site8616] | 9.71
22) AATAATAACAAATGAACACACATATATATGAGCAAA [CACACA_site2121] | 9.13
23) CACGCACGCACATACACACACATACACATATAAATA [CACACA_site6907] | 9.72
24) CATACACAGAAACACACACACATATATATATATATA [CACACA_site4519] | 10.2
25) ATAGTATACAGACACACACACACACCGATATATATA [CACACA_site8511] | 10.1
26) ACCATACATACATACACACACACACGCATATTTATA [CACACA_site7386] | 10.1
